System: Setaria faberi (SETFA)
Test: Example B2 herbicidal action, post-emergence, pots in glasshouse; further: test concentration or dose not given here
Format: in vivo
Conditions: Application post-emergence, evaluated after 13 days (100=total damage to plant; 0=no damage to plant)
Protocol: Seeds of a variety of test species were sown in standard soil in pots. […] After 13 days, the test was evaluated (100=total damage to plant; 0=no damage to plant).
Below: a set of entries, each annotated with reported damage to plant, Setaria faberi (SETFA).

Some compounds with recorded damage to plant, Setaria faberi (SETFA):
query: Quote damage to plant, Setaria faberi (SETFA) reported for `Cn1c(=O)c(-c2ccccc2)c(OC(=O)C(C)(C)C)c2nccnc21` please.
result: 0

query: Retrieve damage to plant, Setaria faberi (SETFA) measured for `CCn1c(=O)c(-c2cc(F)ccc2Cl)c(OC(=O)C(C)C)c2nccnc21` and print it.
result: 6

query: Let me know recorded damage to plant, Setaria faberi (SETFA) for `Cn1c(=O)c(-c2cc(F)c(F)cc2Cl)c(OC(=O)C(C)(C)C)c2nccnc21` , thanks.
result: 7

query: Supply measured damage to plant, Setaria faberi (SETFA) of `CC(C)C(=O)Oc1c(-c2c(F)ccc(Br)c2Cl)c(=O)[nH]c2nccnc12` in your reply.
result: 8

query: Hello, please tell me recorded damage to plant, Setaria faberi (SETFA) for this one: `O=c1[nH]c2nccnc2c(O)c1-c1ccccc1Br`
result: 6

query: Identify the reported damage to plant, Setaria faberi (SETFA) for the following entry. `Cn1c(=O)c(-c2ccc(C(F)(F)F)cc2[N+](=O)[O-])c(OC(=O)C(C)(C)C)c2nccnc21`
result: 0

query: State, in one line, measured damage to plant, Setaria faberi (SETFA) of `Cn1c(=O)c(-c2c(F)ccc(Br)c2Cl)c(OC(=O)C(C)(C)C)c2nccnc21`
result: 0

query: Indicate its recorded damage to plant, Setaria faberi (SETFA); the compound in question is `CCn1c(=O)c(-c2cc(C)ccc2C)c(OC(=O)C(C)(C)C)c2nccnc21`
result: 0

query: Report damage to plant, Setaria faberi (SETFA) for `CCn1c(=O)c(-c2cc(F)c(Cl)cc2Cl)c(OC(=O)C(C)C)c2nccnc21`
result: 2

query: Specify measured damage to plant, Setaria faberi (SETFA) for `O=c1[nH]c2nccnc2c(O)c1-c1cc(F)ccc1Cl` .
result: 9

Further cases:
query: Give the reported damage to plant, Setaria faberi (SETFA) for this compound. `CCn1c(=O)c(-c2c(Cl)cc(C(F)(F)F)cc2Cl)c(OC(=O)C(C)(C)C)c2nccnc21`
result: 6

query: Give damage to plant, Setaria faberi (SETFA) for `CCn1c(=O)c(-c2ccccc2OC(F)F)c(OC(=O)C(C)(C)C)c2nccnc21`
result: 0

query: // fetch damage to plant, Setaria faberi (SETFA) given entry `Cc1cnc2c(OC(=O)C(C)(C)C)c(-c3c(F)ccc(F)c3Cl)c(=O)n(C)c2n1`
result: 7

query: Using known records, supply damage to plant, Setaria faberi (SETFA) for `CCn1c(=O)c(-c2cc(OC(F)(F)F)ccc2OC)c(OC(=O)C(C)C)c2nccnc21`
result: 6

query: Could you please provide reported damage to plant, Setaria faberi (SETFA) for `CC(C)(C)C(=O)Oc1c(-c2ccc(C(F)(F)F)cc2[N+](=O)[O-])c(=O)[nH]c2nccnc12` ? Thanks!
result: 0

query: Identify measured damage to plant, Setaria faberi (SETFA) corresponding to `Cn1c(=O)c(-c2cc(F)c(Cl)cc2Cl)c(OC(=O)C(C)(C)C)c2nccnc21`
result: 3
